B1: ZNF449 (parent)
chain: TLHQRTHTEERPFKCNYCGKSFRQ

Variants of: B1
PROTOCOL NOTES: protein stability index of a GFP-peptide fusion (GPS, HEK-293T) (PSI 1-6); higher = more stable;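 further: lentivirally expressed fusions sorted by FACS into six bins by GFP to DsRed ratio, PSI derived from sequencing read proportions per bin multiplied by bin number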
SETTINGS: c terminus: a fixed tail appended
TEST READOUT: protein stability index
Provide a numeric answer; units are not to be included.

Identify protein stability index associated with the variant C18G 3.02

Identify protein stability index associated with the variant R5N 1.65

Identify protein stability index associated with the variant F13H 1.39

Identify protein stability index associated with the variant F13D 2.92

Identify protein stability index associated with the variant T6F 1.76

Identify protein stability index associated with the variant E9I 1.8

Identify protein stability index associated with the variant R11L 2.39

Identify protein stability index associated with the variant R23F 2.21

Identify protein stability index associated with the variant T6C 3.06

Identify protein stability index associated with the variant R23I 3.2

Identify protein stability index associated with the variant Y17C 2

Identify protein stability index associated with the variant T1E 2.64

Identify protein stability index associated with the variant T1F 2.08

Identify protein stability index associated with the variant C15F 2.98

Identify protein stability index associated with the variant C15Y 3.26

Identify protein stability index associated with the variant Y17Q 3.16

Identify protein stability index associated with the variant F13C 3.05

Identify protein stability index associated with the variant C18W 2.33

Identify protein stability index associated with the variant R5E 3.05

Identify protein stability index associated with the variant C15R 2.61

Identify protein stability index associated with the variant Q24S 3.49

Identify protein stability index associated with the variant F13R 1.69

Identify protein stability index associated with the variant K14Y 1.93

Identify protein stability index associated with the variant Q24W 2.12

Identify protein stability index associated with the variant P12S 2.52

Identify protein stability index associated with the variant T1P 2.56

Identify protein stability index associated with the variant E10W 2.46

Identify protein stability index associated with the variant T6E 2.67

Identify protein stability index associated with the variant R23V 2.15

Identify protein stability index associated with the variant Q4N 2.75

Identify protein stability index associated with the variant Q24H 2.12

Identify protein stability index associated with the variant R5Q 1.89

Identify protein stability index associated with the variant T8N 1.94

Identify protein stability index associated with the variant C18M 2.72

Identify protein stability index associated with the variant Y17T 2.62

Identify protein stability index associated with the variant T8W 1.82

Identify protein stability index associated with the variant C15K 3.55

Identify protein stability index associated with the variant E9N 1.88

Identify protein stability index associated with the variant E10P 1.91

Identify protein stability index associated with the variant F22P 3.03

Identify protein stability index associated with the variant Y17N 3.21

Identify protein stability index associated with the variant F22M 2.28

Identify protein stability index associated with the variant L2A 2.95

Identify protein stability index associated with the variant Q24I 1.68

Identify protein stability index associated with the variant T8C 2.3

Identify protein stability index associated with the variant E9W 1.77
